assay summary: in vitro
measurement context: human, SH-SY5Y cells
reported endpoint: viability at 24 h, 25 µM (%)
// return numeric value only (unit: %, not printed)

The following compounds have reported results that may help.
Cl.O=C(CCN1CCCCC1)c1ccc(-c2ccccc2)cc1 ... 95.4
COc1ccc(C(=O)CCN2CCCCC2)cc1.Cl ... 86
Cl.O=C(CCCN1CCC(Cc2ccccc2)CC1)c1ccc2ccccc2c1 ... 86
COc1ccc(C(=O)CCN2CCC(Cc3ccccc3)CC2)cc1.Cl ... 63.9
COc1cc(/C=C/C(=O)CC(=O)/C=C/c2ccc(O)c(OC)c2)ccc1O ... 76.5

(Q) Dear colleague, I am looking for the recorded viability at 24 h, 25 µM of the following compound: Cl.O=C(CN1CCC(Cc2ccccc2)CC1)c1ccc2ccccc2c1
(A) 104

(Q) Please report the recorded viability at 24 h, 25 µM for Cl.O=C(CCN1CCOCC1)c1ccc(-c2ccccc2)cc1 .
(A) 73

(Q) Could you share which viability at 24 h, 25 µM value was measured for COc1ccc(C(=O)CN2CCC(Cc3ccccc3)CC2)cc1.Cl ?
(A) 98.4

(Q) Look at this compound and give its reported viability at 24 h, 25 µM. COc1cccc(C(=O)CCCN2CCC(Cc3ccccc3)CC2)c1.Cl
(A) 100

(Q) Given COc1ccc(C(=O)CCCN2CCC(Cc3ccccc3)CC2)cc1.Cl , state its recorded viability at 24 h, 25 µM.
(A) 100

(Q) Sample Cl.O=C(CCCN1CCC(Cc2ccccc2)CC1)c1ccccc1 — what was its viability at 24 h, 25 µM?
(A) 100

(Q) Looking for the measured viability at 24 h, 25 µM of C[C@H](CCN1CCCCC1)c1ccc(-c2ccccc2)cc1 , can you help?
(A) 100

(Q) Need viability at 24 h, 25 µM of Cl.O=C(CCN1CCCCC1)c1ccc2ccccc2c1 , thanks.
(A) 66.4

(Q) Sample Cl.O=C(CCN1CCOCC1)c1ccc2ccccc2c1 — what was its viability at 24 h, 25 µM?
(A) 48

(Q) Which viability at 24 h, 25 µM value is on record for Cl.O=C(CCN1CCC(Cc2ccccc2)CC1)c1ccccc1 ?
(A) 48

* * *

assay summary: Displacement of [3H]-ifenprodil from GluN1a/GluN2B (unknown origin) expressed in mouse L(tk-) cell membranes after 120 mins by scintillation counting analysis
Design: species or system Homo sapiens
Each entry below lists one item and its recorded Ki value.

Example entries begin here.
O=C(CCN1CCOCC1)c1ccccc1 ... > 1000 nM
O=C(CN1CCC(Cc2ccccc2)CC1)c1ccc(-c2ccccc2)cc1 ... > 1000 nM
Cl.O=C(CCN1CCCCC1)c1ccc2ccccc2c1 ... > 1000 nM

We next turn to a different compound, shown below.
(Q) Fill in the blank: the reported Ki of Cl.O=C(CCN1CCCCC1)c1ccc(-c2ccccc2)cc1 is ____.
(A) > 1000 nM

* * *

system tested: Sigma intracellular receptor 2 (Rattus norvegicus, UniProt Q5U3Y7)
Sequence (Q5U3Y7 whole entry): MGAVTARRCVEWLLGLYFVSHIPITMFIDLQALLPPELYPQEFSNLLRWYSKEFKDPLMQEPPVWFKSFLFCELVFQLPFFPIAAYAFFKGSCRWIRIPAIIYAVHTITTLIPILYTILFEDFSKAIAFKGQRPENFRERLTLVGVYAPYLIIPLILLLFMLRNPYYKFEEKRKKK
assay summary: Displacement of [3H]-DTG from S2R in rat liver membranes after 120 mins by scintillation counting assay
Binary label based on Ki with cut-off 800 nM: below gives label 1, not below gives label 0.

Before answering, review these 8 worked examples.
O=C(CCN1CCOCC1)c1ccccc1 ... label 0
Cl.O=C(CCN1CCOCC1)c1ccc(-c2ccccc2)cc1 ... label 0
Cl.O=C(CCN1CCOCC1)c1ccc2ccccc2c1 ... label 0
Cl.O=C(CCN1CCCCC1)c1ccc(-c2ccccc2)cc1 ... label 1
COc1ccc(C(=O)CCN2CCC(Cc3ccccc3)CC2)cc1.Cl ... label 0
O=C(CN1CCC(Cc2ccccc2)CC1)c1ccc(-c2ccccc2)cc1 ... label 0
Cl.O=C(CCN1CCCCC1)c1ccc2ccccc2c1 ... label 1
COc1cccc(C(=O)CN2CCC(Cc3ccccc3)CC2)c1 ... label 0

(Q) Quick check: does COc1ccc2cc(C(=O)CN3CCC(Cc4ccccc4)CC3)ccc2c1 have Ki under 800 nM?
(A) label 0

* * *

system tested: Sigma non-opioid intracellular receptor 1 (Cavia porcellus, UniProt Q60492)
Sequence (Q60492 whole entry): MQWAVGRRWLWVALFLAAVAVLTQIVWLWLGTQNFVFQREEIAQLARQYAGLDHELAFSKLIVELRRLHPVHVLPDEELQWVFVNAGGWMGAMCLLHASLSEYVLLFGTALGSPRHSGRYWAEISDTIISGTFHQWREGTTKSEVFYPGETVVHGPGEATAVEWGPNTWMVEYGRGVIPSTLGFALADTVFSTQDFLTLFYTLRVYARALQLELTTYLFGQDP
assay summary: Displacement of [3H](+)-pentazocine from S1R in guinea pig brain cortex membranes after 120 mins by scintillation counting assay
Format: cell membranes
Each entry below carries its recorded pKi.
Formally, pKi is defined as -log10 of the concentration c, with c in mol/L.

These recorded examples may help you get a feel for the data.
COc1ccc(C(=O)CCN2CCOCC2)cc1 ... 6.52
COc1cccc(C(=O)CCCN2CCC(Cc3ccccc3)CC2)c1.Cl ... 7.77
Cl.O=C(CCN1CCC(Cc2ccccc2)CC1)c1ccccc1 ... 7.80

(Q) What value of measured pKi is listed for O=C(CCN1CCC(Cc2ccccc2)CC1)c1ccc(-c2ccccc2)cc1 ?
(A) 6.78

(Q) # get_value(readout='pKi', item= COc1ccc(C(=O)CCN2CCCCC2)cc1.Cl )
(A) 8.10

(Q) Endpoint output: pKi of O=C(CCN1CCOCC1)c1ccccc1 . Value?
(A) 6.22

(Q) Quick check: pKi of O=C(CCCN1CCC(Cc2ccccc2)CC1)c1ccc(-c2ccccc2)cc1 ?
(A) 6.87

(Q) Need pKi, item COc1cccc(C(=O)CN2CCC(Cc3ccccc3)CC2)c1
(A) 6.88

(Q) Dear colleague, I am looking for the recorded pKi of the following compound: COc1ccc(C(=O)CCCN2CCC(Cc3ccccc3)CC2)cc1.Cl
(A) 7.51

* * *

assay summary: in vitro
measurement context: human, SH-SY5Y cells
Description: Cytotoxicity against human SH-SY5Y cells assessed as cell viability at 50 uM after 48 hrs by MTS assay relative to control
Decide using viability at 48 h, 50 µM alone. Strictly below 50%: condition met. Equal to or above 50%: condition not met.

Record excerpt, results attached:
C[C@H](CCN1CCCCC1)c1ccc(-c2ccccc2)cc1 ... condition not met
Cl.O=C(CCN1CCC(Cc2ccccc2)CC1)c1ccccc1 ... condition met
Cl.O=C(CN1CCC(Cc2ccccc2)CC1)c1ccc2ccccc2c1 ... condition met
COc1ccc(C(=O)CCN2CCC(Cc3ccccc3)CC2)cc1.Cl ... condition met
COc1ccc(C(=O)CCCN2CCC(Cc3ccccc3)CC2)cc1.Cl ... condition not met
Cl.O=C(CCN1CCCCC1)c1ccc2ccccc2c1 ... condition met

(Q) Please state whether viability at 48 h, 50 µM is below 50% for Cl.O=C(CCCN1CCC(Cc2ccccc2)CC1)c1ccc2ccccc2c1
(A) condition not met

(Q) Find out if reported viability at 48 h, 50 µM for COc1ccc(C(=O)CN2CCC(Cc3ccccc3)CC2)cc1.Cl is less than 50%
(A) condition not met

(Q) Identify whether the molecule COc1ccc(C(=O)CCN2CCCCC2)cc1.Cl records viability at 48 h, 50 µM below 50%.
(A) condition met

* * *

system tested: Sigma intracellular receptor 2 (Rattus norvegicus)
assay summary: Displacement of [3H]-DTG from S2R in rat liver membranes after 120 mins by scintillation counting assay
pKi: −log10 of the molar value.
Assign class by pKi: not lower than 6 means True; lower than 6 means False.

Example entries begin here.
Cl.O=C(CCN1CCC(Cc2ccccc2)CC1)c1ccccc1 ... False
COc1ccc(C(=O)CCN2CCOCC2)cc1 ... False
COc1cccc(C(=O)CCCN2CCC(Cc3ccccc3)CC2)c1.Cl ... True
COc1ccc2cc(C(=O)CCCN3CCC(Cc4ccccc4)CC3)ccc2c1 ... True

Consider now this further compound.
(Q) Has C[C@H](CCN1CCCCC1)c1ccc(-c2ccccc2)cc1 a recorded pKi greater than or equal to 6?
(A) True

* * *

system tested: Sigma non-opioid intracellular receptor 1 (Cavia porcellus, UniProt Q60492)
assay summary: Displacement of [3H](+)-pentazocine from S1R in guinea pig brain cortex membranes after 120 mins by scintillation counting assay
Assay type: cell membranes
reported endpoint: pKi
Reminder that pKi means the negative base-10 logarithm of the concentration expressed in mol/L.

(Q) Query: pKi; subject: COc1ccc(C(=O)CN2CCC(Cc3ccccc3)CC2)cc1.Cl
(A) 7.57

(Q) Give its pKi value. Item: O=C(CN1CCC(Cc2ccccc2)CC1)c1ccccc1
(A) 7.12

(Q) Give its pKi value. Item: O=C(CCN1CCCCC1)c1ccccc1
(A) 6.77

(Q) Need pKi of Cl.O=C(CCCN1CCC(Cc2ccccc2)CC1)c1ccccc1 , thanks.
(A) 8.05

(Q) Query: pKi; subject: COc1ccc2cc(C(=O)CCCN3CCC(Cc4ccccc4)CC3)ccc2c1
(A) 7.17
